Target: T1, hiR2-FL-G546A-T7 (human, UniProt Q6PJF5 1-856)
T1 sequence: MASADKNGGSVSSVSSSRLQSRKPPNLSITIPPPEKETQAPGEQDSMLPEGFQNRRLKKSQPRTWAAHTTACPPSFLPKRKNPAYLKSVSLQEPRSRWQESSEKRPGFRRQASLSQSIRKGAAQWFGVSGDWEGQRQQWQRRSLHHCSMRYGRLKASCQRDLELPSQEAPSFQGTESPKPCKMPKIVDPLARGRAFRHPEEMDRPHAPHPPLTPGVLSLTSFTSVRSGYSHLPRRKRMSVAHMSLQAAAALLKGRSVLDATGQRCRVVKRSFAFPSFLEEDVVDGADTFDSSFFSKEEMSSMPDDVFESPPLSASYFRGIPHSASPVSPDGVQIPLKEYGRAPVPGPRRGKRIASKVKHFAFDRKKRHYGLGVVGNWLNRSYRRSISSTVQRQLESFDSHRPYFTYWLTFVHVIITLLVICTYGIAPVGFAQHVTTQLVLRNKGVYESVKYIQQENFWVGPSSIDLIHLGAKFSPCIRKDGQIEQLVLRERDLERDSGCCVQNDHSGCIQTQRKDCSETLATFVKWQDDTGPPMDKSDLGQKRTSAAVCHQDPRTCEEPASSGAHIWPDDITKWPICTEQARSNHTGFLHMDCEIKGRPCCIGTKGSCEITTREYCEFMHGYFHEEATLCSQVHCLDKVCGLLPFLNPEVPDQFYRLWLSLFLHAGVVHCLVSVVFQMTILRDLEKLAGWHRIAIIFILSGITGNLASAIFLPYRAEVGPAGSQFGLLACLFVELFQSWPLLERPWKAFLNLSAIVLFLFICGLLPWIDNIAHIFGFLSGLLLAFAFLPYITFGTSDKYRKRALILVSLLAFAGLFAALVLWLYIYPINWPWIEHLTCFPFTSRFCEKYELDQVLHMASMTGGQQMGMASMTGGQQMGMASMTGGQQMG
Assay: FACS on MEF-DKO cells expressing the variant, 3 µg/ml antibody
measurement label: loss of binding vs wild type

// worked examples, loss of binding vs wild type included
[
  {
    "binder": "antibody 5 (antibody, V domains shown, mouse IgG, kappa light chain; also called clone #5; purified antibody 5) VH: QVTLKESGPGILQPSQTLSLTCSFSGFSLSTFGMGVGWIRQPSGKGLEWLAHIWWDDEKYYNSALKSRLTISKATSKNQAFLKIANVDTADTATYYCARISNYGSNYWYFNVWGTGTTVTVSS VL: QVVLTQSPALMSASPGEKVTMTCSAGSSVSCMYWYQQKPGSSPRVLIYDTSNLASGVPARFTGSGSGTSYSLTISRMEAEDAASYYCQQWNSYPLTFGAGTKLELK",
    "loss of binding vs wild type": "≥ 30%"
  },
  {
    "binder": "antibody 34 (antibody, V domains shown, mouse IgG, kappa light chain; also called clone #34; purified antibody 34) VH: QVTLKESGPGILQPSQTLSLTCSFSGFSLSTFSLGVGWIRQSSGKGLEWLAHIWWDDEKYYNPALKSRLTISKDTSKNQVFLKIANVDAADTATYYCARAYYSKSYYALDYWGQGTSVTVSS VL: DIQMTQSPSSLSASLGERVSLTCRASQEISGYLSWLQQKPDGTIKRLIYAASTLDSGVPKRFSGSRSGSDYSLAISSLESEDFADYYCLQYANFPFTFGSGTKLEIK",
    "loss of binding vs wild type": "≥ 30%"
  }
]

Turning now to a further record.
Exercise: Which loss of binding vs wild type is reported for this binder? antibody 43 (antibody, V domains shown, mouse IgG, kappa light chain; also called clone #43; purified antibody 43) VH: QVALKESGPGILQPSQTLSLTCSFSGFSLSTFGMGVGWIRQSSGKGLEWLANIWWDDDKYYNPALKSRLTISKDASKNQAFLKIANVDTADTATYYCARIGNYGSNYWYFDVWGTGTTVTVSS VL: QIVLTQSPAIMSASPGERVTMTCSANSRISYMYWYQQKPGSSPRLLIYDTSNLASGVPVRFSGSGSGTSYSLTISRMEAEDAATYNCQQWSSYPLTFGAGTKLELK
Key: ≥ 30%
